B1: VH:VL chains; a variant is named by its letters at X, in order (parent)
chain 1: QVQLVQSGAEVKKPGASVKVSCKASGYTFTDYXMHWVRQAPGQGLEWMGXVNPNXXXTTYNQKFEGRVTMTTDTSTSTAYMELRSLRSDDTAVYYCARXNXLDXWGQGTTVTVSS
chain 2: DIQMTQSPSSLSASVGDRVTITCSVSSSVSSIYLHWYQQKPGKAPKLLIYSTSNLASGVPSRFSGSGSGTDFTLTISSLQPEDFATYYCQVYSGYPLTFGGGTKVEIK

- Variants of: B1
- Experiment Notes: yeast display scFab, FACS + sequencing
- Conditions Used: with MET
The list shows a part of the results. The true hit rate is not given.
Property Measured: antigen binding call

- Sequence Variant: "VRGRGVSY"
  Property Measured: "antigen binding call"
  Measured Value: "no binding"
- Sequence Variant: "YTTKSDGV"
  Property Measured: "antigen binding call"
  Measured Value: "no binding"
- Sequence Variant: "YRGRDYGV"
  Property Measured: "antigen binding call"
  Measured Value: "no binding"
- Sequence Variant: "FRGRGAAY"
  Property Measured: "antigen binding call"
  Measured Value: "binds"
- Sequence Variant: "VRAGGDVF"
  Property Measured: "antigen binding call"
  Measured Value: "no binding"
- Sequence Variant: "FAGGGDGD"
  Property Measured: "antigen binding call"
  Measured Value: "no binding"
- Sequence Variant: "AERRGSWS"
  Property Measured: "antigen binding call"
  Measured Value: "no binding"
- Sequence Variant: "VEKGGDVS"
  Property Measured: "antigen binding call"
  Measured Value: "no binding"
- Sequence Variant: "FRTRDFLV"
  Property Measured: "antigen binding call"
  Measured Value: "no binding"
- Sequence Variant: "YRGGAAWD"
  Property Measured: "antigen binding call"
  Measured Value: "binds"
- Sequence Variant: "DATGGSVD"
  Property Measured: "antigen binding call"
  Measured Value: "no binding"
- Sequence Variant: "VKEKGAWS"
  Property Measured: "antigen binding call"
  Measured Value: "no binding"
- Sequence Variant: "YRARSALD"
  Property Measured: "antigen binding call"
  Measured Value: "binds"
- Sequence Variant: "DRGGDDWV"
  Property Measured: "antigen binding call"
  Measured Value: "no binding"
- Sequence Variant: "SEEASDGA"
  Property Measured: "antigen binding call"
  Measured Value: "no binding"
- Sequence Variant: "SRGRGAVD"
  Property Measured: "antigen binding call"
  Measured Value: "binds"
- Sequence Variant: "VTGGDYAV"
  Property Measured: "antigen binding call"
  Measured Value: "no binding"
- Sequence Variant: "DAGGGDAV"
  Property Measured: "antigen binding call"
  Measured Value: "no binding"
- Sequence Variant: "VAGTGFWV"
  Property Measured: "antigen binding call"
  Measured Value: "no binding"
- Sequence Variant: "SAGRGVGS"
  Property Measured: "antigen binding call"
  Measured Value: "no binding"
- Sequence Variant: "YRTRDDVY"
  Property Measured: "antigen binding call"
  Measured Value: "no binding"
- Sequence Variant: "YEGGADVD"
  Property Measured: "antigen binding call"
  Measured Value: "no binding"
- Sequence Variant: "YRGRGVGS"
  Property Measured: "antigen binding call"
  Measured Value: "binds"
- Sequence Variant: "VEGTSAVF"
  Property Measured: "antigen binding call"
  Measured Value: "no binding"
- Sequence Variant: "VAGGGAGV"
  Property Measured: "antigen binding call"
  Measured Value: "no binding"
- Sequence Variant: "DKEGGDAV"
  Property Measured: "antigen binding call"
  Measured Value: "no binding"
- Sequence Variant: "VKTGGDVF"
  Property Measured: "antigen binding call"
  Measured Value: "no binding"
- Sequence Variant: "FRGRGVGD"
  Property Measured: "antigen binding call"
  Measured Value: "binds"
- Sequence Variant: "YRAEGAWS"
  Property Measured: "antigen binding call"
  Measured Value: "binds"
- Sequence Variant: "AKKRGAWS"
  Property Measured: "antigen binding call"
  Measured Value: "binds"
- Sequence Variant: "YAKEGDGV"
  Property Measured: "antigen binding call"
  Measured Value: "no binding"
- Sequence Variant: "VEEEGDVA"
  Property Measured: "antigen binding call"
  Measured Value: "no binding"
- Sequence Variant: "FRKGGSGV"
  Property Measured: "antigen binding call"
  Measured Value: "binds"
- Sequence Variant: "YRARSSWS"
  Property Measured: "antigen binding call"
  Measured Value: "binds"
- Sequence Variant: "DTTGSASF"
  Property Measured: "antigen binding call"
  Measured Value: "no binding"
- Sequence Variant: "VTGEGALV"
  Property Measured: "antigen binding call"
  Measured Value: "no binding"
- Sequence Variant: "VTGTGDVY"
  Property Measured: "antigen binding call"
  Measured Value: "no binding"
- Sequence Variant: "VGGTSDVV"
  Property Measured: "antigen binding call"
  Measured Value: "no binding"
- Sequence Variant: "FRGRDDLV"
  Property Measured: "antigen binding call"
  Measured Value: "no binding"
- Sequence Variant: "FRGGGFVV"
  Property Measured: "antigen binding call"
  Measured Value: "no binding"
- Sequence Variant: "VKKRGAWS"
  Property Measured: "antigen binding call"
  Measured Value: "binds"
- Sequence Variant: "VKEKGAWV"
  Property Measured: "antigen binding call"
  Measured Value: "no binding"
- Sequence Variant: "YRTRDAWV"
  Property Measured: "antigen binding call"
  Measured Value: "binds"
- Sequence Variant: "YRARSAAD"
  Property Measured: "antigen binding call"
  Measured Value: "binds"
- Sequence Variant: "YRTRDALV"
  Property Measured: "antigen binding call"
  Measured Value: "binds"
- Sequence Variant: "YARGADGS"
  Property Measured: "antigen binding call"
  Measured Value: "no binding"
- Sequence Variant: "FRGGGSGV"
  Property Measured: "antigen binding call"
  Measured Value: "binds"
- Sequence Variant: "VKEKGDVA"
  Property Measured: "antigen binding call"
  Measured Value: "no binding"
- Sequence Variant: "YREGDASD"
  Property Measured: "antigen binding call"
  Measured Value: "no binding"
- Sequence Variant: "YRKKTDWS"
  Property Measured: "antigen binding call"
  Measured Value: "no binding"
- Sequence Variant: "VRARGDVS"
  Property Measured: "antigen binding call"
  Measured Value: "binds"
- Sequence Variant: "YRAGSAAD"
  Property Measured: "antigen binding call"
  Measured Value: "binds"
- Sequence Variant: "VAEKGFGA"
  Property Measured: "antigen binding call"
  Measured Value: "no binding"
- Sequence Variant: "DRGRDDVV"
  Property Measured: "antigen binding call"
  Measured Value: "no binding"
- Sequence Variant: "FAAKTAAA"
  Property Measured: "antigen binding call"
  Measured Value: "no binding"
- Sequence Variant: "VEKEGDGS"
  Property Measured: "antigen binding call"
  Measured Value: "no binding"
- Sequence Variant: "VETTDSWV"
  Property Measured: "antigen binding call"
  Measured Value: "no binding"
- Sequence Variant: "FRGRGSSY"
  Property Measured: "antigen binding call"
  Measured Value: "binds"
- Sequence Variant: "VTTRADVF"
  Property Measured: "antigen binding call"
  Measured Value: "no binding"
- Sequence Variant: "VTGGDSSA"
  Property Measured: "antigen binding call"
  Measured Value: "no binding"
- Sequence Variant: "YAGGAYLY"
  Property Measured: "antigen binding call"
  Measured Value: "no binding"
- Sequence Variant: "SRGRGYGD"
  Property Measured: "antigen binding call"
  Measured Value: "no binding"
- Sequence Variant: "VRGRGALF"
  Property Measured: "antigen binding call"
  Measured Value: "binds"
- Sequence Variant: "YKTRSAWS chain 1 M48I"
  Property Measured: "antigen binding call"
  Measured Value: "no binding"
- Sequence Variant: "DGGENDVF"
  Property Measured: "antigen binding call"
  Measured Value: "no binding"
- Sequence Variant: "VEAGDSSA"
  Property Measured: "antigen binding call"
  Measured Value: "no binding"
- Sequence Variant: "VKEKGDGS"
  Property Measured: "antigen binding call"
  Measured Value: "no binding"

The reported numbers originate from the emibetuzumab library of Makowski et al. (2022).
